Measurement target: T1, LTKTG-EGFL (human LTK amino acids 63-420) (human, UniProt P29376 63-420)
T1 construct: Fc-His6 tag removed by caspase 3; also called LTK (in BLI, SEC-MALLS and ITC)
T1 sequence: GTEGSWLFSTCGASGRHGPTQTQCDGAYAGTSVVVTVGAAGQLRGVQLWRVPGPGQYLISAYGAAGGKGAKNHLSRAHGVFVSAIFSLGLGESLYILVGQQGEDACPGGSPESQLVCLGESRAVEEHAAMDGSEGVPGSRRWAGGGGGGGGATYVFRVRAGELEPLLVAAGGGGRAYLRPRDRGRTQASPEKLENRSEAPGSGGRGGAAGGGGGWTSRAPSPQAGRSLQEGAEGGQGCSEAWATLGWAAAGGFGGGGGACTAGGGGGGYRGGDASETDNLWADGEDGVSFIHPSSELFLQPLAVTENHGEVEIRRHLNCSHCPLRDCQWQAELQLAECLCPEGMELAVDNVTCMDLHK
Protocol text: BLI, biotinylated ALKAL1 R115E on streptavidin biosensors, LTKTG-EGFL in solution, dilution series 6.4 µM-400 nM
Metric: Kd (µM)
Field: numeric (µM). Do not append units.

Dear colleague, I am looking for the recorded Kd of the following binder: ALKAL1^R115E (residues 57-129) (ligand, human, UniProt Q6UXT8 57-129, looked up, range 57-129; also called ALKAL1 site 1 mutant R115E) PSGSRSAEIFPRDSNLKDKFIKHFTGPVTFSPECSKHFHRLYYNTRECSTPAYYKRCAELLTRLAVSPLCSQT
3.1
